Source listed as patent US20240075027A1.

System: human myeloma cell lines (HMCLs)
Assay: In vitro chemosensitivity assay (CellTiter-Glo cell viability)
Format: cell-based
Conditions: Homo sapiens; single-agent, 48 h; panel of sensitive, innate and clonally-derived resistant HMCLs
pIC50: −log10 of the molar value.
Property label: pIC50

>>> test_value("CC(C)/N=c1\\cc2n(-c3ccc(Cl)cc3)c3ccccc3nc-2cc1Nc1ccc(Cl)cc1 [CLF, clofazimine]")
"4.69 to 6.70"
